Tested on: MDA-MB-468
ASSAY_PROTOCOL: Cytotoxicity against human MDA-MB-468 cells assessed as effect on cell growth at 10 uM incubated for 48 hrs by sulforhodamine B assay
Format: cell-based
RUN_PARAMETERS: mda-mb-468, 48 h

| MOLECULE | SYSTEM_TESTED | Activity |
| --- | --- | --- |
| O=C(NCc1ccccc1Cl)[C@@H]1CCC(=O)N1Cc1ccccc1 | MDA-MB-468 | Non-Toxic |
| O=C(NCCc1ccccc1)[C@@H]1CCC(=O)N1Cc1ccc(Cl)cc1Cl | MDA-MB-468 | Non-Toxic |
| O=C(NCCc1ccccc1)[C@@H]1CCC(=O)N1Cc1ccc(Br)cc1 | MDA-MB-468 | Non-Toxic |
| CN1C(=O)CC[C@H]1C(=O)NCc1cc(C(F)(F)F)ccc1Cl | MDA-MB-468 | Non-Toxic |
